# Tested on: NCI-H460 lung
# assay_text: NCI-60 one-dose screen, 48 h
# conditions: 10 µM unless noted
This is part of a sample that, as a whole, favours compounds with a hit. Of some 83,000 tested, about 20% had one in any assay. Calls of active or inactive are those of the source. How the source made its calls: active means growth percent below 10; inactive means the rest.
Respond only with the outcome that fits, drawn from 1.0 = active, 0.0 = inactive

Example cases with answers are listed next.
>  <molecule>
COc1ccc(-c2ccc(C)n2-c2ccc(-c3nc4cc(Cl)ccc4s3)cc2)cc1

>  <target_of_assay>
NCI-H460 lung

>  <discrete_label>
0.0

$$$$
>  <molecule>
COc1cccc(-c2cc3c(O)cc(C#N)cc3[nH]2)c1

>  <target_of_assay>
NCI-H460 lung

>  <discrete_label>
0.0

$$$$
>  <molecule>
O=C(CSC1CCc2ccccc21)N/N=C/c1ccccc1O (stereo unspecified)

>  <target_of_assay>
NCI-H460 lung

>  <discrete_label>
0.0

$$$$
>  <molecule>
CCOC(=O)c1cn2c3c(cc(C)cc3c1=O)C(=O)/C(=C/c1ccccc1)C2

>  <target_of_assay>
NCI-H460 lung

>  <discrete_label>
0.0

$$$$
>  <molecule>
CCN(CC)CCC(CNc1ccnc2cc(Cl)ccc12)c1ccc(Cl)cc1 (stereo unspecified)

>  <target_of_assay>
NCI-H460 lung

>  <discrete_label>
1.0

$$$$

Continue with the molecule presented below.
Prompt: Please let me know the test result on file for CCN1C(=O)N(CC)C2C1NN=c1s/c(=C\c3cccnc3)c(=O)n12 (stereo unspecified) .
Response: 1.0
